Tested on: A498 renal
assay notes: NCI tumour cell line growth inhibition, 48 h
test readout: TGI

IN: Specify reported TGI for the compound shown: "NC(N)=N/N=C\c1ccc(OCc2ccccc2)cc1"
OUT: 9.7 µM

IN: Check the records and state TGI for COC1=CC(c2ccc[nH]2)=N/C1=C\c1[nH]c(C)c(C(=O)CCCCCCCCC(=O)O[C@H]2CC[C@H]3C4CCc5cc(O)ccc5C4CC[C@]23C)c1C (stereo partly specified)
OUT: > 43.8 µM

IN: Read the entry COC(=N)C1(C#N)NC(c2ccsc2)C(C#N)(C#N)NC1c1ccsc1 (stereo unspecified) and write its reported TGI.
OUT: > 100 µM

IN: Answer with the recorded TGI for the compound listed here: COC(=O)C(C(=O)C(=O)Nc1c(C)cccc1C(C)(C)C)c1nc2ccc(Cl)cc2[nH]c1=O (stereo unspecified)
OUT: > 100 µM

IN: Report TGI, nothing else, for this compound: COc1cc2c[n+]3c4c(c2c(OC)c1OC)CCCC4CC3 (stereo unspecified)
OUT: > 100 µM

IN: Provide only the value of recorded TGI for "O=C1[C@@H]2[C@@H](CN3CN(c4ccccc4)N=C(c4ccccc4)[C@@]23c2ccccc2)C(=O)N1c1ccccc1"
OUT: 36.6 µM

IN: Output measured TGI for this item: "N#CCCC(C=O)(CCC#N)CCC#N"
OUT: > 100 µM

IN: Look up and state reported TGI for "COc1ccc2c(c1)C(=O)c1c-2c(OCCCN(C)C)nc2cc(Br)ccc12"
OUT: 20.5 µM

IN: Give recorded TGI. "O=c1[nH]ccc(CNC23CC4CC(CC(C4)C2)C3)c1O"
OUT: > 100 µM

IN: Determine its reported TGI: FC1=C2C3CCC(C3)C2C1(F)F (stereo unspecified)
OUT: > 100 µM

Measured values drawn from PubChem BioAssay (NCI) for this set.
